# Test system: CCRF-CEM leukemia
# ASSAY NAME: NCI tumour cell line growth inhibition, 48 h; in the data active means GI50 below about 0.43 µM; inactive means the rest
Log the outcome using a class from T (active), F (inactive)

Short answer needed: outcome of this test for COc1ccc2c(c1)C(=Nc1ccc(F)c(F)c1F)c1c-2c(Nc2ccc(F)c(F)c2F)nc2ccccc12 ?
F

Further, for Cc1ccc(Cl)cc1Nc1nc(C(F)(F)F)ccc1C(N)=O ?
F

Further, for CC[C@H](C)[C@H](NC(=O)C12CC(NC)(C1)C2)C(=O)N(C)[C@H](C[C@@H](OC(C)=O)c1nc(C(=O)N[C@@H](Cc2ccccc2)C[C@H](C)C(=O)OC)cs1)C(C)C ?
T

Further, for Cc1cc2nc(CS)[nH]c2cc1C ?
F

Further, for COc1ccc2c3c([nH]c2c1)C(=O)c1nc(C)ccc1C3=O ?
F

Further, for COc1ccc(-c2nc(S(=O)(=O)c3ccccc3)c(S(=O)CC(=O)N3CCC(C)CC3)o2)cc1 (centres undefined) ?
F

Further, for COc1cccc(CNCCN2C(=O)c3ccc4c5c(ccc(c35)C2=O)C(=O)N(CCNCc2cccc(OC)c2)C4=O)c1 ?
F

Further, for CCOc1cc2ncc(C#N)c(Nc3ccc(F)c(Cl)c3)c2cc1NC(=O)CC1CCSS1 (centres undefined) ?
F

Further, for CCOC(=O)c1cnc2c(C)cc(C)cc2c1NCCCN(C)C ?
F

###

Please provide measured TGI for the entries that follow.
# System: SNB-19 CNS
# ASSAY NAME: NCI tumour cell line growth inhibition, 48 h

Lab request: please report TGI under test system SNB-19 CNS for C/C(=N/NC(=O)c1ccccc1O)c1ccc(/C(C)=N\NC(=O)c2ccccc2O)c2nc3cc(C)c(C)cc3nc12
> 100 µM

Further, for c1ccc(-c2ccc(-c3ccc(C4=NCCN4)cc3)o2)cc1 ?
6.3 µM

Further, for C=C1C(=O)O[C@H]2[C@H]1CC/C(COC(=O)NCc1ccc(Cn3c(=O)sn(CCCC)c3=O)cc1)=C\CC[C@@]1(C)O[C@@H]21 ?
19.6 µM

Further, for COc1cc(Cl)cc(-c2nn(-c3cccc(NC(=O)c4cccc(C(F)(F)F)c4)c3)cc2-c2ccncc2)c1 ?
> 100 µM

Further, for COc1ccc(-c2ccccc2)c(N/N=C2\CCCNC2=O)c1 ?
> 100 µM

Further, for Cn1c(CCC2(C)Cc3ccccc3C(=O)O2)cc2ccccc2c1=O (centres undefined) ?
> 100 µM

Further, for CC(C)=NNC1=NC(C)(C)P(=O)(NNc2ncccn2)S1 (centres undefined) ?
> 100 µM

Further, for COC(=O)C1=C(C(=O)OC)C2(C)OC1C(=O)C21CC1 (centres undefined) ?
> 100 µM

Further, for Cc1[nH]n(-c2ncc(C#N)c(=O)[nH]2)c(=O)c1CCO ?
> 100 µM

Further, for CCCC(=O)OCC(COC(=O)CCC)OC(=O)CCC ?
> 100 µM

Further, for Oc1cc2ccccc2cc1-c1n[nH]c(=S)n1CCc1ccccc1 ?
> 100 µM

Further, for Cc1ccc(NC(=O)CC(=O)n2nc(-c3ccccc3)c(N=Nc3ccccc3[N+](=O)[O-])c2-c2ccccc2)cc1 ?
> 100 µM

Further, for CN(c1nc(=[N+](C)C)ss1)C1CCCCC1 ?
> 100 µM

Further, for COc1ccc(NC(=O)CSc2nnc(-c3ccc(N=Cc4ccc(Cl)cc4)cc3)o2)cc1 ?
> 100 µM

Further, for NC(N)=N/N=C(/CCN1CCCC1)CC(c1ccccc1)c1c(O)c2ccccc2oc1=O (centres undefined) ?
> 100 µM

Further, for NCCN1C(=O)c2cc(Cl)c(Cl)cc2C1(O)c1ccc(Cl)cc1 (centres undefined) ?
7.73 µM

Further, for CC(=O)NC(CCCN(Cc1ccccc1)C(=O)NCCCl)C(=O)NCc1ccccc1 (centres undefined) ?
> 100 µM

Further, for CCOC(=O)c1sc2c(sc(=O)n2-c2ccccc2)c1O ?
> 100 µM

Further, for Clc1ccc(OCc2nnc3n2N=C(c2ccccc2)CS3)cc1 ?
46.3 µM

Further, for CCN(C(C)=N)c1ccccc1 ?
> 100 µM

Further, for O=C(O)C1Cc2c([nH]c3ccccc23)C(CCCCO)N1 (centres undefined) ?
> 100 µM

Further, for CCCCCCCCCCCCCCCC(=O)Nc1ccn(C2OC(CO)C(O)C2O)c(=O)n1 (centres undefined) ?
> 80.8 µM

Further, for COCC1OC(OC2OCC3OC4(OCC(O)(C(C)OC)C5OCOC54)OC3C2OC)C(OC)C(O)C1OC1OC(C)C(OC)C(OC2OC(C)C3OC4(CC(O)C(OC5CC(OC6CC(C)([N+](=O)[O-])C(OC)C(C)O6)C(OC(=O)c6c(C)c(Cl)c(O)c(Cl)c6OC)C(C)O5)C(C)O4)OC3(C)C2O)C1O (centres undefined) ?
> 100 µM

Further, for C[C@@H]1OC(=O)C[C@H]2CC(=O)N(CCC3CN(C(=O)c4ccccc4)c4ccccc43)C[C@@H]21 (some centres undefined) ?
> 100 µM

Further, for O=C1/C(=C/c2ccc(Cl)cc2Cl)CN(S(=O)(=O)c2ccccc2)C/C1=C\c1ccc(Cl)cc1Cl ?
10.8 µM

Further, for COC(=O)CCC1(C)C2CCC1/C(=N/O)C2 (centres undefined) ?
> 100 µM

Further, for CCOC(=O)c1cnc2c(C)cc(C)cc2c1NCCCN(C)C ?
60.1 µM

Further, for N[C@@H]1CCCC[C@@H]1N.O=P([O-])([O-])CNCP(=O)([O-])[O-].[Pt+2] ?
> 100 µM

Further, for O=C1CC(Cl)c2c1csc2Br (centres undefined) ?
32.9 µM
